Target: T1, 3A
T1 construct: also called HLA-A2 / point-mutant NY-ESO peptide 3A complex on T2 cells
Experiment: flow cytometry on peptide-pulsed T2 cells, scFv 100 nM
result_type: standardized gMFI
One number for each entry.

# input I have this binder here, NYA-2047 (scFv) scFv: GQVQLVESGGGVVQPGRSLRLSCAASGFSIRSYDMHWVRQAPGKGLEWVATISYDGSQKYYADSVKGRFTISRDNSKNTLYLQMSSLRAEDTAVYHCARGSSGHYEAFDIWGQGTLVTVSSGGGGSGGGGSGGGGSQSVLTQPPSVSAAPGQKVTISCSGSSSNIGNWYVSWYQQLPGTAPKLLIYDNNKRPSGIPDRFSGSKSGTSATLGITGLQTGDEADYYCGTWDSSLSAPWVFGGGTKVTVLGAAAGAGGDYKDDDDKGAAAHHHHHH , and I need its recorded standardized gMFI.
# output 6.09

Values from patent US20230348616A1
